B1: library; numbered along this chain (parent)
chain: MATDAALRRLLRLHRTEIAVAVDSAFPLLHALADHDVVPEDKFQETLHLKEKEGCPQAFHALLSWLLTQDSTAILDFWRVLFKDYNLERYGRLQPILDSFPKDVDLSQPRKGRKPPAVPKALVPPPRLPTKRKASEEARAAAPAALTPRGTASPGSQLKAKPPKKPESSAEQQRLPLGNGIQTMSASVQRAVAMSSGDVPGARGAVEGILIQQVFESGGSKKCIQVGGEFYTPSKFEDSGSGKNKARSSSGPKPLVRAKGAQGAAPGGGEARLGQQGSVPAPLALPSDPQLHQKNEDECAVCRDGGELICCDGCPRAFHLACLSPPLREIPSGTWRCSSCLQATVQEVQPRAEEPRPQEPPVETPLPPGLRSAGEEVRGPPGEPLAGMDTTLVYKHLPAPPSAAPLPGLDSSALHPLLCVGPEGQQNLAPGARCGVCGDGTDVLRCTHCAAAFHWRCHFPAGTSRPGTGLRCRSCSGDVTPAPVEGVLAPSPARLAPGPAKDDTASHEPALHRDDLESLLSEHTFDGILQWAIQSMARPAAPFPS

Variants of: B1
Experiment: AIRE transcriptional activation functional score (insulin promoter-GFP; nonsense median 0, synonymous median 1) (normalised score); higher = higher AIRE activity (more reporter activation)
Settings: with insulin promoter-GFP reporter in HEK293
AIRE transcriptional activation functional score values for the variants below.
measured endpoint: AIRE transcriptional activation functional score

[
  {
    "mutant": "K222V",
    "recorded result": 0.137
  },
  {
    "mutant": "A160T",
    "recorded result": 0.43
  },
  {
    "mutant": "V301E",
    "recorded result": 1.05
  }
]
